# Study System: Bile acid receptor (Homo sapiens)
# Test: ATG_IR1_CIS: Attagene CIS-FACTORIAL HepG2 Assay for human Nuclear Receptor Subfamily 1 Group H Member 4 (NR1H4), IR1 submotif (AID 2282946)
# Condition Details: IR1 reporter transcription, actives raise or lower the signal
Calls of active or inactive are those of the source. Rule for the calls: active = hit-call score of the fitted dose curve at least 0.9, where 1 is the maximum; inactive = score below 0.9.
Select the correct class. Options are Y for active, N for inactive and nothing else.

Exam item: Check the results log: what was the call for O=C(Cl)c1c(Cl)c(Cl)c(C(=O)Cl)c(Cl)c1Cl ?
Marked response: N

Exam item: Outcome? CC12CCC(CC1)C(C)(C)O2
Marked response: N

Exam item: Query: recorded result category for CC(C)[N+](C)(CCOC(=O)C1c2ccccc2Oc2ccccc21)C(C)C in this test
Marked response: N

Exam item: Any idea what this test logged for CO[Si](CCCS)(OC)OC ?
Marked response: N

Exam item: Answer briefly: the call reported for CCCCCCCC(=O)OCC(COC(=O)CCCCCCC)OC(=O)CCCCCCC in this assay.
Marked response: N

Exam item: What outcome does the record of this test show for CCOB(OCC)OCC ?
Marked response: N

Exam item: Hey, what did the test say about CCOC(=O)OC(=O)OCC ?
Marked response: N

Exam item: // param item: CN1CCN(C)CC1 ; yields the recorded call
Marked response: N

Exam item: Could you check what this test reported for NNS(=O)(=O)c1ccc(Oc2ccc(S(=O)(=O)NN)cc2)cc1 ?
Marked response: N

Exam item: What did the test return for [Cl][Sc]([Cl])[Cl] ?
Marked response: N

Exam item: Outcome? O=C(O)C1CCC(C(=O)O)CC1 (stereo unspecified)
Marked response: N

Exam item: So what was the verdict on CC(CCC(=O)O)(c1ccc(O)cc1)c1ccc(O)cc1 in this test?
Marked response: N

Exam item: What outcome does the record of this test show for CC1=CP(=O)(c2ccccc2)CC1 (stereo unspecified) ?
Marked response: N

Exam item: What outcome does the record of this test show for CCCCCCCCCCCC(C)=O ?
Marked response: N

Exam item: Tell me the recorded outcome of this test for CC(=O)c1ccc(S(=O)(=O)NC(=O)NC2CCCCC2)cc1 .
Marked response: N

Exam item: Tell me the recorded outcome of this test for CC1CCC(=O)C1=O (stereo unspecified) .
Marked response: N

Exam item: Hey, what did the test say about C/C=C/C=C/CCCCCCCO ?
Marked response: Y

Exam item: Lab log entry: CCCCCCOc1ccc(N)cc1 — outcome as called in the assay?
Marked response: N

Exam item: Outcome logged for COc1nccnc1CC(C)C in this assay:
Marked response: N

Exam item: Write down the call the test reported for this compound. Item: Cc1c(O)cccc1O
Marked response: N

Exam item: Call for entry COc1ccc(C(=O)/C(Br)=C\C(=O)O)cc1 :
Marked response: N

Exam item: Field: outcome | Entry: O=C(O)c1cc(O)c2ccccc2c1O
Marked response: Y

Exam item: Hi, sorry to bother you, what did the test record for CCOC(=O)C1=NOC(c2ccccc2)(c2ccccc2)C1 ?
Marked response: N

Exam item: # outcome recorded in this test, key = CCC1COC(=O)O1 (stereo unspecified)
Marked response: N

Exam item: Hey, what did the test say about O=C(O)C(F)(F)C(F)(F)C(F)(F)C(F)(F)C(=O)O ?
Marked response: N

Exam item: Outcome logged for CC(=O)/C=C/C1C(C)=CCCC1(C)C (stereo unspecified) in this assay:
Marked response: N
